- target.under.test: human MDM4 protein (amino acids 2-185) (Homo sapiens, UniProt O15151)
- Construct: human MDM4 protein (amino acids 2-185); made in house
- Sequence (O15151 2-185): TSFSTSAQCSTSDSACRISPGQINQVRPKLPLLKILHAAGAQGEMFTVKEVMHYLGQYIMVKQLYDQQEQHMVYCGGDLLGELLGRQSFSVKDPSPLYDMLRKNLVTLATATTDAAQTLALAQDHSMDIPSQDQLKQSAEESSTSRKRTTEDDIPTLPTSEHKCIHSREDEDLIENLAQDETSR
- assay.info: p53-MDM4 TR-FRET assay (p53-MDM4 Assay 1)
- Assay type: binding
- condition.description: 2.5 nM MDM4-biotinylated, 10 nM Cy5-p53 peptide; read-out: IC50 (μM) of p53-Hdm4 inhibition (TR-FRET) Assay 1
Item-by-item account of log10(IC50)
Recall that a logarithmic scale is used here: each number is log10 of IC50 in µM.

Task item: Fill blank: measured log10(IC50) of the compound COc1cc2c(cc1OC(C)C)[C@H](c1ccc(Cl)cc1)N(c1ccc(C(C)(O)C3CC4CCC(C3)N4C(=O)CO)cc1)C(=O)C2 (stereo partly shown) is ____.
Reply: 0.69

Task item: Also need COc1cc2c(cc1OC(C)C)[C@H](c1ccc(Cl)cc1)N(c1ccc(C(C)(O)C3CCN(C(=O)COC(C)=O)CC3)cc1)C(=O)C2 (mixture of isomers) , thanks.
Reply: 0.33

Task item: Also need COc1cc2c(cc1OC(C)C)[C@H](c1ccc(Cl)cc1)N(c1ccc(C(C)(O)C3CCOCC3)cc1)C(=O)C2 (mixture of isomers) , thanks.
Reply: 0.61

---

- target.under.test: human MDM2 protein (amino acids 2-188) (Homo sapiens, UniProt Q00987)
- Construct: human MDM2 protein (amino acids 2-188); made in house
- Sequence (Q00987 2-188): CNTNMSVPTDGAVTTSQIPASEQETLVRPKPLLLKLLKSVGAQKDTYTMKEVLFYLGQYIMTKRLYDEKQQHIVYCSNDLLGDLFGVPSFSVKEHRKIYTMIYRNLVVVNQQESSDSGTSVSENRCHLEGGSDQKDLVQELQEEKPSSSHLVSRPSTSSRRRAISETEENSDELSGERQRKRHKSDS
- assay.info: p53-MDM2 TR-FRET assay, modified (p53-MDM2 Assay 2)
- Format: binding
- condition.description: 0.1 nM MDM2, 0.1 nM Europium labeled streptavidin; read-out: IC50 (nM) of p53-Hdm2 inhibition (TR-FRET) Assay 2
- Protocol: Time Resolved Fluorescence Energy Transfer (TR-FRET) Assay The inhibition of p53-MDM2 and p53-MDM4 interactions is measured by time resolved fluorescence energy transfer (TR-FRET). Fluorescence energy transfer (or Foerster resonance energy transfer) describes an energy transfer between donor and acceptor fluorescent molecules. […]
Item-by-item account of IC50
Lab book: enter the figure in nM, no units written.

Task item: Fill blank: measured IC50 of the molecule COc1cc2c(cc1OC(C)C)[C@H](c1ccc(Cl)cc1)N(c1ccc([C@@](C)(O)C3CC4CCC(C3)S4(=O)=O)cc1)C(=O)C2 (stereo partly drawn) is ____.
Reply: 0.961

# context switch: different molecule, same IC50
Task item: Fill blank: measured IC50 of the molecule COc1cc2c(cc1OC(C)C)[C@H](c1ccc(Cl)cc1)N(c1ccc(C(C)(O)C34CCC(CC3)OC4)cc1)C(=O)C2 (stereo partly drawn) is ____.
Reply: 1.59

---

- target.under.test: human MDM2 protein (amino acids 2-188) (Homo sapiens)
- Construct: human MDM2 protein (amino acids 2-188); made in house
- assay.info: p53-MDM2 TR-FRET assay (p53-MDM2 Assay 1)
- Type: binding
- condition.description: 1.25 nM MDM2-biotinylated, 10 nM Cy5-p53 peptide; read-out: IC50 (μM) of p53-Hdm2 inhibition (TR-FRET) Assay 1
Item-by-item account of IC50
Lab book: enter the figure in µM, no units written.

Consider the following illustrative entries.
Task item: Fill blank: measured IC50 of the compound COc1cc2c(cc1OC(C)C)[C@H](c1ccc(Cl)cc1)N(c1ccc(C(C)(C)O)cc1)C(=O)C2 [Example 11] is ____.
Reply: 0.0555

Task item: Also need COc1cc2c(cc1OC(C)C)[C@H](c1ccc(Cl)cc1)N(c1ccc(C(C)(O)C3CN(C(C)C)C3)cc1)C(=O)C2 (stereo partly drawn) [Example 72] , thanks.
Reply: 0.0234

Task item: Also need CCN1C2CCC1CC(C(C)(O)c1ccc(N3C(=O)Cc4cc(OC)c(OC(C)C)cc4[C@@H]3c3ccc(Cl)cc3)cc1)C2 (stereo partly drawn) [Example 112] , thanks.
Reply: 0.003

Task item: Also need COc1ccc(C(O)(CO)c2ccc(N3C(=O)Cc4cc(OC)c(OC(C)C)cc4[C@@H]3c3ccc(Cl)cc3)cc2)cc1 (stereo partly drawn) [Example 44] , thanks.
Reply: 0.0982

Task item: Also need COc1cc2c(cc1OC(C)C)[C@H](c1ccc(Cl)cc1)N(c1ccc(C(C)(O)CCO)cc1)C(=O)C2 (stereo partly drawn) [Example 41] , thanks.
Reply: 0.247

***
Task item: Fill blank: measured IC50 of the compound COc1cc2c(cc1OC(C)C)[C@H](c1ccc(Cl)cc1)N(c1ccc(C(C)(O)C3CC4CCC(C3)N4S(C)(=O)=O)cc1)C(=O)C2 (stereo partly drawn) [Example 107] is ____.
Reply: 0.0028

Task item: Also need COc1cc2c(cc1OC(C)C)[C@H](c1ccc(Cl)cc1)N(c1ccc(C(C)(O)C34CC5CC(CC(C5)C3)C4)cc1)C(=O)C2 (stereo partly drawn) [Example 141] , thanks.
Reply: 0.0251

Task item: Also need CCN1CCC(N2CC(C(C)(O)c3ccc(N4C(=O)Cc5cc(OC)c(OC(C)C)cc5[C@@H]4c4ccc(Cl)cc4)cc3)C2)CC1 (stereo partly drawn) [Example 100] , thanks.
Reply: 0.0082

Task item: Also need COc1cc2c(cc1OC(C)C)[C@H](c1ccc(Cl)cc1)N(c1ccc([C@@](C)(O)C3CC[S+]([O-])CC3)cc1)C(=O)C2 (stereo partly drawn) [Example 171] , thanks.
Reply: 0.0031

Task item: Also need COc1cc2c(cc1OC(C)C)[C@H](c1ccc(Cl)cc1)N(c1ccc(C(C)(O)C3CCN(C(=O)OC(C)(C)C)CC3)cc1)C(=O)C2 (stereo partly drawn) [Example 42] , thanks.
Reply: 0.0091

---

- target.under.test: human MDM2 protein (amino acids 2-188) (Homo sapiens, UniProt Q00987)
- Construct: human MDM2 protein (amino acids 2-188); made in house
- assay.info: p53-MDM2 TR-FRET assay, modified (p53-MDM2 Assay 2)
- Format: binding
- condition.description: 0.1 nM MDM2, 0.1 nM Europium labeled streptavidin; read-out: IC50 (nM) of p53-Hdm2 inhibition (TR-FRET) Assay 2
# strict inequality: IC50 < 2 nM yields fulfilled, everything else yields not fulfilled

Examples from the recorded data:
Task item: Confirm or reject: IC50 of COc1cc2c(cc1OC(C)C)[C@H](c1ccc(Cl)cc1)N(c1ccc(C(C)(O)[C@H]3CCCNC3)cc1)C(=O)C2 (stereo partly shown) [Example 180] lies strictly below 2 nM
Reply: not fulfilled

Task item: Also need COc1cc2c(cc1OC(C)C)[C@H](c1ccc(Cl)cc1)N(c1ccc(C(C)(O)C3CC4CCC(C3)N4C=O)cc1)C(=O)C2 (stereo partly shown) [Example 111] , thanks.
Reply: fulfilled

Task item: Also need COc1cc2c(cc1OC(C)C)[C@H](c1ccc(Cl)cc1)N(c1ccc(C(C)(O)C3CCN(C4COC4)CC3)cc1)C(=O)C2 (stereo partly shown) [Example 96] , thanks.
Reply: fulfilled

Task item: Also need COc1cc2c(cc1OC(C)C)[C@H](c1ccc(Cl)cc1)N(c1ccc([C@](C)(O)C3CC4CCC(C3)O4)cc1)C(=O)C2 (single isomer, unassigned) [Example 160] , thanks.
Reply: not fulfilled

Task item: Also need COc1cc2c(cc1OC(C)C)[C@H](c1ccc(Cl)cc1)N(c1ccc(C(C)(O)C3CC4CCC(C3)N4C(=O)CO)cc1)C(=O)C2 (stereo partly shown) [Example 114] , thanks.
Reply: not fulfilled

***
Task item: Confirm or reject: IC50 of COc1cc2c(cc1OC(C)C)[C@H](c1ccc(Cl)cc1)N(c1ccc(C(C)(O)C3CCN(C[C@@H](O)CO)CC3)cc1)C(=O)C2 (stereo partly shown) [Example 130] lies strictly below 2 nM
Reply: not fulfilled

Task item: Also need COc1cc2c(cc1OC(C)C)[C@H](c1ccc(Cl)cc1)N(c1ccc([C@](C)(O)C3CCN(C(=O)COC(C)=O)CC3)cc1)C(=O)C2 (single isomer, unassigned) [Example 129] , thanks.
Reply: not fulfilled

Task item: Also need [2H]C([2H])([2H])Oc1cc2c(cc1OC(C)C)[C@H](c1ccc(Cl)cc1)N(c1ccc([C@@](C)(O)C3CCN(C=O)CC3)cc1)C(=O)C2 (single isomer, unassigned) [Example 155] , thanks.
Reply: fulfilled

Task item: Also need COc1cc2c(cc1OC(C)C)[C@H](c1ccc(Cl)cc1)N(c1ccc(C(C)(O)C3C4CNCC3COC4)cc1)C(=O)C2 (stereo partly shown) [Example 156] , thanks.
Reply: not fulfilled

Task item: Also need COc1cc2c(cc1OC(C)C)[C@H](c1ccc(Cl)cc1)N(c1ccc([C@@](C)(O)C3CCN(C(=O)CO)CC3)cc1)C(=O)C2 (single isomer, unassigned) [Example 133] , thanks.
Reply: fulfilled

Task item: Also need COc1cc2c(cc1OC(C)C)[C@H](c1ccc(Cl)cc1)N(c1ccc([C@@](C)(O)C3CC4CCC(C3)O4)cc1)C(=O)C2 (single isomer, unassigned) [Example 159] , thanks.
Reply: fulfilled

Task item: Also need CCN1C2CCC1CC(C(C)(O)c1ccc(N3C(=O)Cc4cc(OC)c(OC(C)C)cc4[C@@H]3c3ccc(Cl)cc3)cc1)C2 (stereo partly shown) [Example 112] , thanks.
Reply: not fulfilled

Task item: Also need COc1cc2c(cc1OC(C)C)[C@H](c1ccc(Cl)cc1)N(c1ccc([C@@](C)(O)C3CCN(C4COC4)CC3)cc1)C(=O)C2 (single isomer, unassigned) [Example 127] , thanks.
Reply: fulfilled

Task item: Also need COc1cc2c(cc1OC(C)C)[C@H](c1ccc(Cl)cc1)N(c1ccc(C(C)(O)C3CC4CCCC(C3)N4C=O)cc1)C(=O)C2 (stereo partly shown) [Example 117] , thanks.
Reply: fulfilled

Task item: Also need COC(=O)N1CCC(C(C)(O)c2ccc(N3C(=O)Cc4cc(OC)c(OC(C)C)cc4[C@@H]3c3ccc(Cl)cc3)cc2)CC1 (stereo partly shown) [Example 76] , thanks.
Reply: not fulfilled
